# TARGET_SYSTEM: IKKε (Homo sapiens, UniProt Q14164)
# Sequence (Q14164 1-716): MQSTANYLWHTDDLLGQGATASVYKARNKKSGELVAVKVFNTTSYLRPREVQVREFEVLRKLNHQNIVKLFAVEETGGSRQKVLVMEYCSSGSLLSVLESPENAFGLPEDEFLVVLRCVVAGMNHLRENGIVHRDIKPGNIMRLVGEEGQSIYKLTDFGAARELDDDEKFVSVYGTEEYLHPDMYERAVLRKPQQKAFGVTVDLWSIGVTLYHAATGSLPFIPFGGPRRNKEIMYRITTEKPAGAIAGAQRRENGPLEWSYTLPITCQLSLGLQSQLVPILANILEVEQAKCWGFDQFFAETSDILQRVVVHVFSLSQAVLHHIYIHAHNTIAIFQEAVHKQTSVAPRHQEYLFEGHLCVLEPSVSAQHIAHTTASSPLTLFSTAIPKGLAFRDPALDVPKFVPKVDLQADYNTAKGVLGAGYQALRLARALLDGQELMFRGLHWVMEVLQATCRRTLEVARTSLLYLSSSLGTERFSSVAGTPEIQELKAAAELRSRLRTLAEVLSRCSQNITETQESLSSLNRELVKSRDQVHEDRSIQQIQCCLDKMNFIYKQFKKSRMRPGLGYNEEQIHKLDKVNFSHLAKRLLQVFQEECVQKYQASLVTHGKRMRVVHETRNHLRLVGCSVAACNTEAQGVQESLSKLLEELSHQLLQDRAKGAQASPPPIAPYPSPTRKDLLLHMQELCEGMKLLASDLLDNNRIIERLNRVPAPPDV
# ASSAY_DETAILS: IKKe Biochemical Assay
# CONDITION: read-out: IKKε IC50
pIC50: −log10 of the molar value. Counter-ions that a name gives are not always drawn.
VALUE_KIND: pIC50

>  <COMPOUND>
COc1cc(C(=O)NC2(C)CCN(C)CC2)ccc1-c1cc2nccc(-c3ccc(OC4CCOCC4)c(C#N)c3)c2o1 [Compound 370, hydrochloride]

>  <REPORTED_MEASUREMENT>
> 7.00

$$$$
>  <COMPOUND>
COc1cc(C(=O)NC2CCN(C)C2)ccc1-c1cc2nccc(-c3ccc(OC4CCOCC4)c(C#N)c3)c2o1 (stereo not drawn)

>  <REPORTED_MEASUREMENT>
> 7.00

$$$$

Proceeding to the next compound to report its pIC50.
input: Identify the reported pIC50 for the following entry. `COc1cc(C(=O)N2C[C@H]3C[C@@H](O)C[C@H]3C2)ccc1-c1cc2nccc(-c3ccc(OC4CCOCC4)c(C#N)c3)c2o1`
output: > 7.00

====

# TARGET_SYSTEM: TBK1 (Homo sapiens)
# ASSAY_DETAILS: TBK Biochemical Assay
# CONDITION: read-out: TBK1 IC50
pIC50: −log10 of the molar value. Structures can show the parent of a compound that is named as a salt.
The entries below come with measured pIC50 values attached.

>  <COMPOUND>
CN(C)C(=O)c1ccc(-c2cc3nccc(-c4ccc(N5CC[C@H](F)C5)c(C#N)c4)c3o2)nc1 (single isomer, unassigned) [Compound 273, hydrochloride]

>  <TARGET_SYSTEM>
TBK1 (Homo sapiens)

>  <REPORTED_MEASUREMENT>
> 7.00

$$$$
>  <COMPOUND>
COc1cc(C(=O)N(C)CCO)ccc1-c1cc2ncc(F)c(-c3ccc(NC4CCOCC4)c(C#N)c3)c2o1

>  <TARGET_SYSTEM>
TBK1 (Homo sapiens)

>  <REPORTED_MEASUREMENT>
> 7.00

$$$$
>  <COMPOUND>
COc1ccc(C#N)cc1-c1ccnc2cc(-c3ncc(C(=O)N(C)C)cc3OC)oc12

>  <TARGET_SYSTEM>
TBK1 (Homo sapiens)

>  <REPORTED_MEASUREMENT>
< 5.30

$$$$
>  <COMPOUND>
COc1cc(C(=O)N2CC3CCC2CN3C)cnc1-c1cc2nccc(-c3ccc(OC4CCOCC4)c(C#N)c3)c2o1 (centres unmarked) [Compound 406, hydrochloride]

>  <TARGET_SYSTEM>
TBK1 (Homo sapiens)

>  <REPORTED_MEASUREMENT>
> 7.00

$$$$

input: Identify the reported pIC50 for the following entry. `COc1cc(C(=O)N(C)C)ccc1-c1cc2nccc(-c3ccc(CN4CCOCC4)c(C#N)c3)c2o1`
output: > 7.00

====

# TARGET_SYSTEM: TBK1 (Homo sapiens)
# Sequence (Q9UHD2 1-729): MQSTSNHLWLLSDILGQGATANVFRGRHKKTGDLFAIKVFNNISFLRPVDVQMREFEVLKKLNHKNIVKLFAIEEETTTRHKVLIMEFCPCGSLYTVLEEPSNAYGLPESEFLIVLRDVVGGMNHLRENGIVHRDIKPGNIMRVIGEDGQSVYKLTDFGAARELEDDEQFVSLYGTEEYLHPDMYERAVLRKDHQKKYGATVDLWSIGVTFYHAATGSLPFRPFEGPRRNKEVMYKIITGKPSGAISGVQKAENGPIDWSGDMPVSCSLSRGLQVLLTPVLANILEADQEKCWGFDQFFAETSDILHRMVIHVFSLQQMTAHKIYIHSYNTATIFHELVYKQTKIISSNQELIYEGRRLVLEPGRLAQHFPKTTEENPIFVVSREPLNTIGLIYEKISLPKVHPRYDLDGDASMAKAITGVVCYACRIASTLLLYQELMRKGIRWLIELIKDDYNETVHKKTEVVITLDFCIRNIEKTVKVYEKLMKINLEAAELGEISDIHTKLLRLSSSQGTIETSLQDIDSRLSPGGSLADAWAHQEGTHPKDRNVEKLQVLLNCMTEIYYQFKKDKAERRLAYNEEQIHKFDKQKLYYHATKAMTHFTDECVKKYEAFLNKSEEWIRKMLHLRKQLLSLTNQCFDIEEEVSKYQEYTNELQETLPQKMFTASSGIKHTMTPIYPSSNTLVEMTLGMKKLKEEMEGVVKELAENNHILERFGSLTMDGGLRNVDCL
# ASSAY_DETAILS: TBK Biochemical Assay
# CONDITION: read-out: TBK1 IC50
Structures can show the parent of a compound that is named as a salt.
VALUE_KIND: IC50

>  <COMPOUND>
COc1cc(C(=O)NCC2(C)COC2)ccc1-c1cc2nccc(-c3ccc(OC4CCOCC4)c(C#N)c3)c2o1 [Compound 59]

>  <IC50>
< 100 nM

$$$$
>  <COMPOUND>
COc1cc(C(=O)N2CC(N3CCCC3)C2)ccc1-c1cc2nccc(-c3ccc(OC4CCOCC4)c(C#N)c3)c2o1 [Compound 20]

>  <IC50>
< 100 nM

$$$$

Proceeding to the next compound to report its IC50.
input: Identify the reported IC50 for the following entry. COc1cc(C(=O)N(C)C)cnc1-c1cc2ncc(Cl)c(-c3ccc(OC4CCOCC4)c(C#N)c3)c2o1 [Compound 336, hydrochloride]
output: 1000 to 5000 nM

====

The entries below come with measured IC50 values attached.
# TARGET_SYSTEM: TBK1 (Homo sapiens)
# ASSAY_DETAILS: TBK Biochemical Assay
# CONDITION: read-out: TBK1 IC50
Where a name gives a salt, the structure may show the parent alone.

Answered examples (4):
>  <MOLECULE>
COc1cc(C(=O)NC2(C)CCNC2)ccc1-c1cc2nccc(-c3ccc(OC4CCOCC4)c(C#N)c3)c2o1 (centres unmarked) [Compound 86, hydrochloride]

>  <IC50>
< 100 nM

$$$$
>  <MOLECULE>
COc1nc(C(=O)N(C)C)ccc1-c1cc2nccc(-c3ccc(OC4CCOCC4)c(C#N)c3)c2o1

>  <IC50>
< 100 nM

$$$$
>  <MOLECULE>
COc1cc(C(=O)N(C)C)cnc1-c1cc2ncc(C3CC3)c(-c3ccc(OC4CCOCC4)c(C#N)n3)c2o1 [Compound 357, hydrochloride]

>  <IC50>
> 5000 nM

$$$$
>  <MOLECULE>
COc1cc(C(=O)N2CC[C@@H](N(C)C)C2)ccc1-c1cc2nccc(-c3ccc(N4CC[C@H](F)C4)c(C#N)c3)c2o1

>  <IC50>
< 100 nM

$$$$

input: Identify the reported IC50 for the following entry. `CN(C)C(=O)c1ccc(-c2cc3nccc(-c4ccc(CN5CCOCC5)c(C#N)c4)c3o2)cc1`
output: 100 to 1000 nM

input: Identify the reported IC50 for the following entry. `COc1cc(C(=O)N(C)CCO)cnc1-c1cc2nccc(-c3ccc(NC4CCOCC4)c(C#N)c3)c2o1`
output: < 100 nM

====

# TARGET_SYSTEM: TBK1 (Homo sapiens)
# ASSAY_DETAILS: TBK Biochemical Assay
# CONDITION: read-out: TBK1 IC50
pIC50: −log10 of the molar value. Structures can show the parent of a compound that is named as a salt.
The entries below come with measured pIC50 values attached.

input: Lab note: TBK1 (Homo sapiens) assay, enter pIC50 for COc1cc(C(=O)N(C)C)ncc1-c1cc2nccc(-c3ccc(OC4CCOCC4)c(C#N)c3)c2o1 [Compound 326] here
output: > 7.00

input: Lab note: TBK1 (Homo sapiens) assay, enter pIC50 for COc1cc(C(=O)N(C)C)cnc1-c1cc2nccc(-c3ccc(OC4CCN(C)C4)c(C#N)c3)c2o1 (stereo not drawn) [Compound 426] here
output: 6.00 to 7.00

input: Lab note: TBK1 (Homo sapiens) assay, enter pIC50 for COc1cc(C(=O)N2CC[C@H](N(C)C)C2)cnc1-c1cc2nccc(-c3ccc(N4CC[C@@H](F)C4)c(C#N)c3)c2o1 [Compound 448] here
output: > 7.00

input: Lab note: TBK1 (Homo sapiens) assay, enter pIC50 for CN(C)C(=O)c1cc(F)c(-c2cc3nccc(-c4ccc(NC5CCOCC5)c(C#N)c4)c3o2)c(F)c1 [Compound 295, hydrochloride] here
output: 6.00 to 7.00

input: Lab note: TBK1 (Homo sapiens) assay, enter pIC50 for COc1cc(C(=O)N(C)CCO)cnc1-c1cc2nccc(-c3ccc(OC4CCOCC4)c(C#N)c3)c2o1 [Compound 328] here
output: > 7.00

input: Lab note: TBK1 (Homo sapiens) assay, enter pIC50 for COc1cc(C(=O)N2CC3CN(C)CC3C2)ccc1-c1cc2nccc(-c3ccc(OC4CCOCC4)c(C#N)c3)c2o1 (stereo not drawn) [Compound 9] here
output: > 7.00

input: Lab note: TBK1 (Homo sapiens) assay, enter pIC50 for COc1cc(C(=O)N[C@@H]2CN3CCC2CC3)ncc1-c1cc2nccc(-c3ccc(N4CC[C@H](F)C4)c(C#N)c3)c2o1 [Compound 444] here
output: > 7.00

input: Lab note: TBK1 (Homo sapiens) assay, enter pIC50 for CN(C)C(=O)c1ccc(-c2cc3nccc(-c4cc(F)c(OC5CCOC6(CC6)C5)c(C#N)c4)c3o2)cc1 (stereo not drawn) [Compound 288, hydrochloride] here
output: < 5.30

input: Lab note: TBK1 (Homo sapiens) assay, enter pIC50 for CN(C)C(=O)c1ccc(-c2cc3nccc(-c4ccc(OC5CC(CO)(CCl)C5)c(C#N)c4)c3o2)cc1 (stereo not drawn) [Compound 168] here
output: 6.00 to 7.00

input: Lab note: TBK1 (Homo sapiens) assay, enter pIC50 for COc1cc(C(=O)N(C)CCO)cnc1-c1cc2ncc(C3CC3)c(-c3ccc(OC4CCOCC4)c(C#N)c3)c2o1 [Compound 341, hydrochloride] here
output: < 5.30

input: Lab note: TBK1 (Homo sapiens) assay, enter pIC50 for CN(C)C(=O)c1ccc(-c2cc3nccc(-c4ccc(Oc5cccnc5)c(C#N)c4)c3o2)cc1 [Compound 181] here
output: 6.00 to 7.00

input: Lab note: TBK1 (Homo sapiens) assay, enter pIC50 for COc1cc(C(=O)N2CC3NCCC32)ccc1-c1cc2nccc(-c3ccc(OC4CCOCC4)c(C#N)c3)c2o1 (stereo not drawn) [Compound 55, hydrochloride] here
output: > 7.00
